Target: T1, Sco5333 (Streptomyces coelicolor, UniProt Q9ADD4 1-301)
T1 sequence: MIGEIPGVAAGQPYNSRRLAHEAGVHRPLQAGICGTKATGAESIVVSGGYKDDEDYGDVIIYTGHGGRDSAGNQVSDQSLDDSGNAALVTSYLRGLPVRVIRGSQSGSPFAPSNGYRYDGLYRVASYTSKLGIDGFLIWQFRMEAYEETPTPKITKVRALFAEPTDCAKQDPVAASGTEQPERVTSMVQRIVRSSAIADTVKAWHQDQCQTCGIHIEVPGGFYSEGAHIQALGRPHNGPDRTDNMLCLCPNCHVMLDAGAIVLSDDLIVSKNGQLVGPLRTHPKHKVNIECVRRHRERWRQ
Assay: EMSA
endpoint: binding result

55ntDcm2 fully methylated (55nt-5/7) (dsDNA, 5mC at strand 1 pos 27 and strand 2 pos 27) DNA 1: ACTATAAAGATACCAGGCGTTTCCCCCTGGAAGCTCCCTCGTGCGCTCTCCTGTT DNA 2: AACAGGAGAGCGCACGAGGGAGCTTCCAGGGGGAAACGCCTGGTATCTTTATAGT
binds
55ntDcm1 CmCTGG bottom (55nt-22/23) (dsDNA, 5mC at strand 2 pos 27) DNA 1: GAAACCCGACAGGACTATAAAGATACCTGGCGTTTCCCCCTGGAAGCTCCCTCGT DNA 2: ACGAGGGAGCTTCCAGGGGGAAACGCCAGGTATCTTTATAGTCCTGTCGGGTTTC
binds
